Target: methionyl-tRNA synthetase (Trypanosoma brucei)
Assay: inhibition of trypanosomal methionyl-tRNA synthetase – biochemical, fluorescence polarization, dose response, orthogonal assay for T. brucei MetRS inhibitor project, late-stage follow-up (AID 686969)
Calls of active or inactive are those of the source. No rule for the calls is given here.
Respond only with the outcome that fits, drawn from yes (1) = active, no (0) = inactive

[
  {
    "compound": "O=C1[C@@H]2Cc3c([nH]c4ccccc34)C(c3cccc([N+](=O)[O-])c3)N2C(=O)CN1CCCO (some centres undefined)",
    "label": "yes (1)"
  },
  {
    "compound": "CN(Cc1cc(Cl)cc(Cl)c1)[C@H]1C[C@H]2c3[nH]c4ccccc4c3CCN2C(=O)[C@H]1CO",
    "label": "yes (1)"
  },
  {
    "compound": "COc1ccc2[nH]c3nc(SCC(=O)Nc4ccc5c(c4)OCO5)nnc3c2c1",
    "label": "yes (1)"
  },
  {
    "compound": "CCO[C@@H]1OC(C(=O)NCc2nc3ccccc3[nH]2)=C[C@H](c2ccc(Br)cc2)[C@H]1CCCO",
    "label": "no (0)"
  },
  {
    "compound": "O=C(Cn1cc(C(=O)C(=O)N2CCOCC2)c2ccccc21)Nc1cccc(C(F)(F)F)c1",
    "label": "yes (1)"
  }
]

From here, focus on the item given below.
Query :: Dear colleague, could you share the recorded outcome for `O=C(NCc1nc2ccccc2[nH]1)C1=C[C@@H](c2ccc(Br)cc2)C[C@@H](OCCCCO)O1` when you have a moment?
Result :: yes (1)

###

Molecular target: methionyl-tRNA synthetase (Trypanosoma brucei)
Assay: inhibition of trypanosomal methionyl-tRNA synthetase – biochemical, fluorescence polarization, dose response, orthogonal assay for T. brucei MetRS inhibitor project, late-stage follow-up (AID 686969)
Calls of active or inactive are those of the source. No rule for the calls is given here.
Respond only with the outcome that fits, drawn from yes (1) (active), no (0) (inactive)

[
  {
    "compound": "Clc1ccc(-c2nnc(SCc3nc4ccccc4[nH]3)o2)c(Cl)c1",
    "label": "yes (1)"
  },
  {
    "compound": "O=C(NCc1nc2ccccc2[nH]1)C1=C[C@@H](c2ccc(Br)cc2)C[C@@H](OCc2ccc(CO)cc2)O1",
    "label": "yes (1)"
  },
  {
    "compound": "O=C1CC(N(CCc2ccccc2)C(=S)Nc2ccccc2)C(=O)N1c1ccc(Br)cc1 (configuration not stated)",
    "label": "yes (1)"
  },
  {
    "compound": "O=C(NNC(=O)c1cc(-c2ccc(Cl)c(Cl)c2)nc2ccccc12)Nc1ccccc1",
    "label": "yes (1)"
  },
  {
    "compound": "Clc1ccc(OCCSCc2nc3ccccc3[nH]2)cc1",
    "label": "yes (1)"
  },
  {
    "compound": "CCO[C@H]1OC(C(=O)NCc2nc3ccccc3[nH]2)=C[C@@H](c2ccc(Br)cc2)[C@@H]1CCCO",
    "label": "yes (1)"
  },
  {
    "compound": "O=C(NCc1nc2ccccc2[nH]1)C1=C[C@@H](c2csc3ccccc23)C[C@@H](OCCCCO)O1",
    "label": "yes (1)"
  },
  {
    "compound": "O=C(NCc1nc2ccccc2[nH]1)C1=C[C@H](C2CC2)C[C@H](OCc2ccc(CO)cc2)O1",
    "label": "yes (1)"
  }
]

Query :: Dear colleague, could you share the recorded outcome for `O=C(NCc1nc2ccccc2[nH]1)C1=C[C@H](c2ccccc2)C[C@H](OCc2ccc(CO)cc2)O1` when you have a moment?
Result :: no (0)

Query :: Dear colleague, could you share the recorded outcome for `O=C(NCc1nc2ccccc2[nH]1)C1=C[C@@H](c2ccccc2)C[C@@H](OCc2ccc(CO)cc2)O1` when you have a moment?
Result :: yes (1)

Query :: Dear colleague, could you share the recorded outcome for `CCOC(=O)N1CCC(Nc2c(Nc3ccc(F)cc3)c(=O)c2=O)CC1` when you have a moment?
Result :: yes (1)

Query :: Dear colleague, could you share the recorded outcome for `O=C(NNC(=O)c1ccc(-n2cncn2)c([N+](=O)[O-])c1)c1ccc(Cl)cc1` when you have a moment?
Result :: yes (1)
